These measurements were taken from patent US20240301156A1.

Listing of recorded Maximum CO2 release temperature by entry.
# protocol.notes: Maximum carbon dioxide (CO2) release temperature of amine compound (DSC)
# Type: physicochemical
# assay.context: amine left in air at 23° C., 50% RH for 24 hours; DSC 23 to 250° C., 10° C./minute, nitrogen
# Procedure: The amine compound (a1) with carbon dioxide absorbed is heated at a heating rate of 10° C./minute from 23° C. to 250° C., and the temperature at which the amount of heat absorbed due to desorption of carbon dioxide reaches the maximum is measured, and the temperature is defined as the maximum carbon dioxide release temperature. […]
Could you give me the number in °C? Just the number is fine.

The following compounds have reported results that may help.
1) NCC1CCCC(CN)C1 (centres unmarked) = 125.7
2) CC1(C)CC(N)CC(C)(CN)C1 (centres unmarked) = 114.4
3) NCc1cccc(CN)c1 = 135.5
4) NCCN1CCNCC1 = 81.9

Look up and report measured Maximum CO2 release temperature for this entry: NC1CCC(CC2CCC(N)CC2)CC1 (centres unmarked) 53.0
